Molecular target: T1, human brain natriuretic peptide, cyclic BNP (1-32c) (human, cyclic: ring closed by a disulfide bond between the two cysteine residues; biotinylated or acridinium-labelled in some assays)
T1 construct: also called hBNP; hBNP 1-32
Test: off-rate assay on yeast-displayed scFv by flow cytometry: biotinylated cyclic BNP (1-32c), chase with unlabelled BNP 1-32c, SA:PE, first order decay fit
Property name: koff (s⁻¹)
The answer is to be given in s⁻¹; state only the numeric part.

Reference set (3 entries):
[[record]]
binder = "3-631-436 scFv, unmutated, on yeast (scFv) scFv: QVQLQQPGAELVRPGASVKLSCKASGYTFTSYWMNWVKQRPEQGLEWIGRIDPYDSETHYNQKFKDKAILTVDKSSSTAFVQLTSLTSEDSAVYYCVSDGYWGAGTTVTVSSGPAKELTPLKEAKVSDVVMTQTPLTLSVTTGQPASISCKSSQSLLDSDGKTYLNWLFQRPGESPKLLIYVVSKLESGVPDRFTGSGSGTDFTLKISRVEAEDLGVYYCLQATHFPWTFGGGTKLEIKRAAALESRGPFEGKPIPNPLLGLDSTRTGHHHHHH"
value_measured = 0.0048

[[record]]
binder = "500-2 (scFv, selected by on/off-rate sorting; member of group m17) scFv (VH-linker-VL with V5 and 6His tags), displayed on yeast: QVQLQQPGAELVRPGASVKLSCKASGYTFTSYWMNWVKQRPEQGLEWIGRIDPYDSETHYNQKFKDKAILTVDKSSSTAFVQLTSLTSEDSAVYYCVSDGYWGAGTTVTVSSGPAKELTPLKEAKVSDVVMTQTPLTLSVTTGQPASISCKSSQSLLDSDGKTYLNWLFQRPGESPKLLIYWTTKLESGVPDRFTGSGSGTDFTLKISRVEAEDLGVYYCLQATHFPWTFGGGTKLEIKRAAALESRGPFEGKPIPNPLLGLDSTRTGHHHHHH"
value_measured = 0.00032

[[record]]
binder = "L2 9 (scFv, selected by off-rate sorting; member of group m17) scFv (VH-linker-VL with V5 and 6His tags), displayed on yeast: QVQLQQPGAELVRPGASVKLSCKASGYTFTSYWMNWVKQRPEQGLEWIGRIDPYDSETHYNQKFKDKAILTVDKSSSTAFVQLTSLTSEDSAVYYCVSDGYWGAGTTVTVSSGPAKELTPLKEAKVSDVVMTQTPLTLSVTTGQPASISCKSSQSLLDSDGKTYLNWLFQRPGESPKLLIYVTDKLESGVPDRFTGSGSGTDFTLKISRVEAEDLGVYYCLQATHFPWTFGGGTKLEIKRAAALESRGPFEGKPIPNPLLGLDSTRTGHHHHHH"
value_measured = 0.0005


In: Tell me measured koff for L2 8 (scFv, selected by equilibrium sorting; member of group m17) scFv (VH-linker-VL with V5 and 6His tags), displayed on yeast: QVQLQQPGAELVRPGASVKLSCKASGYTFTSYWMNWVKQRPEQGLEWIGRIDPYDSETHYNQKFKDKAILTVDKSSSTAFVQLTSLTSEDSAVYYCVSDGYWGAGTTVTVSSGPAKELTPLKEAKVSDVVMTQTPLTLSVTTGQPASISCKSSQSLLDSDGKTYLNWLFQRPGESPKLLIYWMNKLESGVPDRFTGSGSGTDFTLKISRVEAEDLGVYYCLQATHFPWTFGGGTKLEIKRAAALESRGPFEGKPIPNPLLGLDSTRTGHHHHHH please.
Out: 0.00017

In: Tell me measured koff for L2 10 (scFv, selected by off-rate sorting; member of group m17) scFv (VH-linker-VL with V5 and 6His tags), displayed on yeast: QVQLQQPGAELVRPGASVKLSCKASGYTFTSYWMNWVKQRPEQGLEWIGRIDPYDSETHYNQKFKDKAILTVDKSSSTAFVQLTSLTSEDSAVYYCVSDGYWGAGTTVTVSSGPAKELTPLKEAKVSDVVMTQTPLTLSVTTGQPASISCKSSQSLLDSDGKTYLNWLFQRPGESPKLLIYRTNKLESGVPDRFTGSGSGTDFTLKISRVEAEDLGVYYCLQATHFPWTFGGGTKLEIKRAAALESRGPFEGKPIPNPLLGLDSTRTGHHHHHH please.
Out: 0.0019
